Every entry's value here was drawn from ChEMBL document CHEMBL1201862.

system: SK-MEL-2; assay: NCI tumour cell line growth inhibition, 48 h
Activity calls are given as the source filed them. Cut-off read from the data, not from the text of the source: active = GI50 up to about 1.1 µM and inactive = higher.
Measured Property: GI50

Examples with their reported GI50 follow.
Compound | Tested Target | GI50
COc1cc(Br)cc2cc(C3=CSC4=NCCN34)c(=O)oc12 | SK-MEL-2 | 20.3 µM (inactive)
Cc1ccc(/N=N/C2S/C(=C(\C#N)c3nc4ccccc4[nH]3)N(c3ccccc3)C2=O)cc1 (stereo not given) | SK-MEL-2 | > 100 µM (inactive)
Cc1c(O)ccc2c(O)c(NC(=O)c3ccc4c(c3)CCC(C)(C)O4)c(=O)oc12 | SK-MEL-2 | > 100 µM (inactive)
N=C(N)CCNC(=O)C1CCC(N)=N1 (stereo not given) | SK-MEL-2 | 27.2 µM (inactive)

For every item below, please supply its GI50.
1. CON(C)C(=O)C(Cc1ccccc1)NC(=O)OCc1ccccc1 (stereo not given)
2. Cc1cc(C)c2c(=N)c3ccccc3n(CCCCCCO)c2n1

Result:
1: > 100 µM (inactive); 2: 3.27 µM (inactive)
